# METHOD DESCRIPTION: qHTS assay for measurement of the activity of small molecule inhibitors on Zika virus induced Caspase-3 activity in human astrocytoma cells (AID 1224859)
# DETAILS: SNB-19 ZIKV-induced caspase-3/7, luminescence, 6 h; series mostly up to 45.7 µM
Active and inactive are the calls of the source. Calls come from the whole dose curve; as a rule, active = well fitted inhibition curve with a large enough effect; inconclusive = small, poorly fitted or top-dose-only effect; inactive = no such curve, though single readings can be large or run the other way.
Output constraint: value belongs to active, inactive

Previously resolved entries follow.
1. CCCC[N+]1(C)[C@H]2CC(OC(=O)[C@H](CO)c3ccccc3)C[C@H]1[C@H]1O[C@H]12 (stereo not given in full) | inactive
2. C=CCON=C(C[C@H]1O[C@@H]2O[C@]3(C)CC[C@@H]4[C@H](C)CC[C@@H]([C@H]1C)[C@@]24OO3)[C@H]1O[C@@H]2O[C@]3(C)CC[C@H]4[C@H](C)CC[C@@H]([C@@H]1C)[C@@]24OO3 | inactive
3. CCCN(CCC)c1c([N+](=O)[O-])cc(S(N)(=O)=O)cc1[N+](=O)[O-] | inactive
4. c1ccc(CCCN2CCN(CCOC(c3ccccc3)c3ccccc3)CC2)cc1 | inactive

Entry CC(=O)OCC1=C(C(=O)O)N2C(=O)[C@@H](N)[C@@H]2SC1 : call = ?
inactive

Entry COc1ccc(C(=O)c2c(C)n(CCN3CCOCC3)c3cc(I)ccc23)cc1 : call = ?
inactive

Entry CCCN(CCC)[C@@H]1CCc2ccc(O)cc2C1 : call = ?
inactive

Entry CC1(C)CC/C(=C/c2ccc(Cl)cc2)C1(O)Cn1cncn1 (stereo not given) : call = ?
inactive

Entry Clc1cnc(Oc2ccc(Oc3ncc(Cl)cc3Cl)cc2)c(Cl)c1 : call = ?
inactive

Entry O=C1C=CC[C@@H]2[C@H]3CCCN4CCC[C@@H](CN12)[C@@H]34 : call = ?
active

* * *

A collection of compounds and their measured max response
# METHOD DESCRIPTION: qHTS Assay for Identifying Gametocytocidal Compounds (AID 743244);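 for max response: % is set by controls: 0 for no effect and ±100 for the full control effect; actives lower the fluorescent signal which means gametocytes are killed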
# DETAILS: P. falciparum 3D7 stage III-V gametocytes, alamarBlue, 72 h; stronger effect = lower value
Results filed as inconclusive are left out.
Kindly provide the numeric value in % only, without the unit symbol.

Solved cases below.
1. Nc1ccc([N+](=O)[O-])cc1 | -13.4
2. NCCc1c[nH]c2ccc(O)cc12 | 9.61
3. CC(=O)NCCc1c[nH]c2ccccc12 | 17.3
4. CC(=O)[C@H]1CCC2C3CC[C@H]4C[C@H](O)CC[C@]4(C)C3CC[C@@]21C (stereo partly drawn) | 27.5

Tell me the measured max response of CC(C)NC(C)Cc1ccc(I)cc1 (stereo not drawn) , please.
8.77

Tell me the measured max response of O=C(O)COc1ccccc1 , please.
-2.31

Tell me the measured max response of C#CCOC(=O)C1=CCCN(C)C1 , please.
10.6

Tell me the measured max response of CCOCCOC(C)=O , please.
4.31

Tell me the measured max response of Nc1c(Cl)c(Cl)c(Cl)c(Cl)c1Cl , please.
4.37

Tell me the measured max response of COC(=O)[C@@H](N)CCCN=C(N)N[N+](=O)[O-] , please.
6.28

Tell me the measured max response of C1CCC(NC2CCCCC2)CC1 , please.
18.7

Tell me the measured max response of NC(CP(=O)(O)O)C(=O)O (stereo not drawn) , please.
4

Tell me the measured max response of CN1CC[C@@H](c2c(O)cc(O)c3c(=O)cc(-c4ccccc4Cl)oc23)[C@@H](O)C1 , please.
13.4

Tell me the measured max response of C=CCC1=C(C)C(OC(=O)C2C(C=C(C)C)C2(C)C)CC1=O (stereo not drawn) , please.
-9.3

Tell me the measured max response of CC[C@@H](C(N)=O)N1CCCC1=O , please.
27.6

* * *

A collection of compounds and their measured Potency
# METHOD DESCRIPTION: qHTS Assay for Identifying Gametocytocidal Compounds (AID 743244); note: potency is the fitted concentration of half-maximal effect
# DETAILS: P. falciparum 3D7 stage III-V gametocytes, alamarBlue, 72 h
Results filed as inconclusive are left out. The source made the active and inactive calls. The call rests on the fitted dose curve; in most records, active means well fitted curve in the direction sought with a large enough effect; inconclusive means small, poorly fitted or top-dose-only effect, or another doubt; inactive means no such curve, though single readings can be large or run the other way.

Solved cases below.
1. COCCn1c2c([n+](Cc3cnccn3)c1C)C(=O)c1ccccc1C2=O | 0.372 µM (active)
2. Cc1nc2cnc3ccc(C#Cc4cccnc4)cc3c2n1-c1ccc(C(C)(C)C#N)cc1 | 5.9 µM (active)
3. O=[N+]([O-])c1ccc([As](=O)(O)O)cc1 | 10 µM (active)
4. CC(=O)[O][Hg][c]1ccccc1 | 1.12 µM (active)

Next compound, please.
Tell me the measured Potency of C=CCON=C(C[C@H]1O[C@@H]2O[C@]3(C)CC[C@@H]4[C@H](C)CC[C@@H]([C@H]1C)[C@@]24OO3)[C@H]1O[C@@H]2O[C@]3(C)CC[C@H]4[C@H](C)CC[C@@H]([C@@H]1C)[C@@]24OO3 , please.
0.0083 µM (active)

* * *

# METHOD DESCRIPTION: qHTS for differential inhibitors of proliferation of Plasmodium falciparum line D10 (AID 1877);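 note: parasites grown with compound for 72 h before DNA staining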
# DETAILS: series mostly up to 28.7 µM
Records with an inconclusive call do not appear. Activity calls are given as the source filed them. Calls come from the whole dose curve; as a rule, active = well fitted curve in the direction sought with a large enough effect; inconclusive = small, poorly fitted or top-dose-only effect, or another doubt; inactive = no such curve, though single readings can be large or run the other way.
Output constraint: value belongs to active, inactive

Previously resolved entries follow.
1. CC[C@@]1(O)C(=O)OCc2c1cc1n(c2=O)Cc2cc3ccccc3nc2-1 | active
2. C[N+]1(C)C2CCC1CC(OC(=O)C(CO)c1ccccc1)C2 (configuration not stated) | inactive
3. Cn1cnc(CCN)c1 | inactive
4. O=C(O)CC[N+](=O)[O-] | inactive

Entry NC(=O)CN1CC(O)CC1=O (configuration not stated) : call = ?
inactive

Entry CC[C@@H]1C(=O)OC[C@@H]1Cc1cncn1C : call = ?
inactive

* * *

# TARGET: Furin (Homo sapiens) (UniProt P09958)
# Sequence (P09958 whole entry, looked up): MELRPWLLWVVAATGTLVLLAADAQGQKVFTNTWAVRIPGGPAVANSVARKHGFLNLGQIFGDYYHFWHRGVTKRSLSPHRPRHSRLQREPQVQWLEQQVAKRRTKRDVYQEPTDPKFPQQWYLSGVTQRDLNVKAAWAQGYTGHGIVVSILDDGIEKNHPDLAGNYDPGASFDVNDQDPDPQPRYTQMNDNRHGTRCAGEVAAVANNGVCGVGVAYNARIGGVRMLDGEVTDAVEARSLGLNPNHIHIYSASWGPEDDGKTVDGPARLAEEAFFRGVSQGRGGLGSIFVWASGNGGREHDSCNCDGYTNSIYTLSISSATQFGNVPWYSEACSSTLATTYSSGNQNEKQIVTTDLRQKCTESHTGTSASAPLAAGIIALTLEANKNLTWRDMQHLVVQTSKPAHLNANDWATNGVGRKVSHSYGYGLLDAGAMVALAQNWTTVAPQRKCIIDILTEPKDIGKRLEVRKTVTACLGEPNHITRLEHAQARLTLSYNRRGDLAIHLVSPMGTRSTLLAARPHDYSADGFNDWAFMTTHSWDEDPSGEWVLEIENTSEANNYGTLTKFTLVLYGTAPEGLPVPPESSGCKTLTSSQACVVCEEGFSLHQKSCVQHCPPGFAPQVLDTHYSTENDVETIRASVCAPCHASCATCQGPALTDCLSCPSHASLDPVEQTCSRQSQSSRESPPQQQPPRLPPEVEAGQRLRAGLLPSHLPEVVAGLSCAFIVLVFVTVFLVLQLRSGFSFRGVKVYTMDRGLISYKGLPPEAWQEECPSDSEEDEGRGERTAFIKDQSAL
# METHOD DESCRIPTION: Furin counterscreen qHTS for Zika virus inhibitors (AID 1347149); note: nearly all actives have a fitted effect of over 70% in size
# DETAILS: furin enzymatic counterscreen, fluorogenic substrate; series mostly up to 57.5 µM
Records with an inconclusive call do not appear. Calls of active or inactive are those of the source. Calls come from the whole dose curve; as a rule, active = well fitted inhibition curve with a large enough effect; inconclusive = small, poorly fitted or top-dose-only effect; inactive = no such curve, though single readings can be large or run the other way.
Output constraint: value belongs to y for active, n for inactive

Previously resolved entries follow.
1) O=C(O)c1cc(Oc2ccc(C(F)(F)F)cc2Cl)ccc1[N+](=O)[O-] | n
2) Nc1c(Cl)c(Cl)c(Cl)c(Cl)c1Cl | n
3) C=CCN1CC[C@]23CCCCC2[C@H]1Cc1ccc(O)cc13 (stereo not given in full) | n

Entry O=[N+]([O-])c1c(Cl)c(Cl)cc(Cl)c1Cl : call = ?
n

Entry CC(=O)N(C)c1cccc(-c2ccnc3c(C(=O)c4cccs4)cnn23)c1 : call = ?
y

* * *

# METHOD DESCRIPTION: qHTS for small molecule inhibitors of Yes1 kinase: Counter Assay (AID 686950);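 note: no kinase present so only ADP-Glo detection of a fixed ADP amount is tested; luminescence from ADP-Glo reporting ADP in a fixed ATP and ADP mixture; 0% = DMSO wells with ATP plus ADP and -100% = ATP-only wells without ADP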
# DETAILS: series mostly up to 76.9 µM
Calls of active or inactive are those of the source. Calls follow the shape of the dose curve; as a rule, active = well fitted curve in the direction sought with a large enough effect; inactive = no such curve, though single readings can be large or run the other way.
OUTCOME MEASURE: outcome

1. CC(=O)Nc1ccc(OC[C@](C)(O)C(=O)Nc2ccc([N+](=O)[O-])c(C(F)(F)F)c2)cc1 | inactive
2. CC1CC(C)C(=O)C(C(O)CC2CC(=O)NC(=O)C2)C1 (stereo not given) | inactive
3. COc1ccc2c(c[n+](C)c3c4cc5c(cc4ccc23)OCO5)c1OC | inactive
4. C=CCON=C(C[C@H]1O[C@@H]2O[C@]3(C)CC[C@@H]4[C@H](C)CC[C@@H]([C@H]1C)[C@@]24OO3)[C@H]1O[C@@H]2O[C@]3(C)CC[C@H]4[C@H](C)CC[C@@H]([C@@H]1C)[C@@]24OO3 | inactive

Next compound, please.
Tell me the measured outcome of O=C(Oc1ccc([N+](=O)[O-])cc1)N1CCC(C(O)(c2ccc3c(c2)OCO3)c2ccc3c(c2)OCO3)CC1 , please.
inactive

* * *

# TARGET: Cytochrome P450 3A4 (Homo sapiens)
# METHOD DESCRIPTION: qHTS Assay for Inhibitors and Substrates of Cytochrome P450 3A4 (AID 884); note: % is set by controls: 0 for no effect and ±100 for the full control effect; nearly all actives have a fitted effect of over 50% in size
# DETAILS: recombinant CYP3A4, Luciferin-PPXE luminescence; series mostly up to 57.1 µM
Records with an inconclusive call do not appear. Active and inactive are the calls of the source. The call rests on the fitted dose curve; in most records, active means well fitted inhibition curve with a large enough effect; inconclusive means small, poorly fitted or top-dose-only effect; inactive means no such curve, though single readings can be large or run the other way.
OUTCOME MEASURE: outcome

1) O=C(O)COc1ccccc1 | inactive
2) Nc1ccc(Cl)cc1 | inactive
3) CNCCc1c[nH]c2ccc(O)cc12 | inactive
4) O=C(O)CC[N+](=O)[O-] | inactive

* * *

# TARGET: Tyrosine-protein phosphatase non-receptor type substrate 1 (Homo sapiens) + Leukocyte surface antigen CD47 (Homo sapiens) (UniProt P78324+Q08722)
# Sequence (P78324 whole entry, looked up, the tested form may be a part): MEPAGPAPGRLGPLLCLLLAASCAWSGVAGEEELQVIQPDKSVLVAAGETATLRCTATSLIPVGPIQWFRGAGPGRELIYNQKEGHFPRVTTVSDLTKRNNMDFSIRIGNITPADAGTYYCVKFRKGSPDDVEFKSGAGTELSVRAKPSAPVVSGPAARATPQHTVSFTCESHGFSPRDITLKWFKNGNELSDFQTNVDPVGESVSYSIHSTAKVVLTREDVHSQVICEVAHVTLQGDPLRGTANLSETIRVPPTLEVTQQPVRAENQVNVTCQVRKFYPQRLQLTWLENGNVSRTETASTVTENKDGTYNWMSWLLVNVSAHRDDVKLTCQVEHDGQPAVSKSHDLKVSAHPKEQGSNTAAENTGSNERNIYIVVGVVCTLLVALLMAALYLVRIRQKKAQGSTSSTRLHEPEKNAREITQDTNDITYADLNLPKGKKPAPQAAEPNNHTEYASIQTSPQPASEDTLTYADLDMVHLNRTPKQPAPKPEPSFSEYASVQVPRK
# Sequence (Q08722 whole entry, looked up, the tested form may be a part): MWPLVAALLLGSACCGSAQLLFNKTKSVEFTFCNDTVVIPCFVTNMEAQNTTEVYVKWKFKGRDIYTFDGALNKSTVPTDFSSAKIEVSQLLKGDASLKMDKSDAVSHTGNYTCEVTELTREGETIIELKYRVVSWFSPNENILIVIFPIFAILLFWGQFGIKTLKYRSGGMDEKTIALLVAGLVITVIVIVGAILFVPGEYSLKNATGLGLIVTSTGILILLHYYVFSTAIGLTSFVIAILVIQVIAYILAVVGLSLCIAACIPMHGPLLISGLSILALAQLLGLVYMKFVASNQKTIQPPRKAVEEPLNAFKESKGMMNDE
# METHOD DESCRIPTION: CD47-SIRPalpha protein protein interaction - HTRF assay qHTS validation (AID 1347058);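 note: recombinant soluble extracellular CD47 with His tag and biotinylated SIRPalpha domains; 0% is about no effect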
# DETAILS: TR-FRET HTRF CD47-His / biotin-SIRPalpha binding, ratio 665/615; series mostly up to 38.3 µM
Inconclusive results are not listed. Active and inactive are the calls of the source. Calls follow the shape of the dose curve; as a rule, active = well fitted curve in the direction sought with a large enough effect in the signal ratio (not every such curve was filed as active); inconclusive = small, poorly fitted or top-dose-only effect, or effect the other way, or a change in a side signal; inactive = no such curve, though single readings can be large or run the other way; the % refers to the signal ratio.
OUTCOME MEASURE: outcome

Solved cases below.
1) CC(=O)[C@H]1CCC2C3CC[C@H]4C[C@H](O)CC[C@]4(C)C3CC[C@@]21C (some centres not stated) | inactive
2) C[N+](C)(C)CC(=O)O | inactive
3) CCCCc1ccc(C(=O)O)nc1 | inactive
4) CCCN1CCC[C@H](c2cccc(O)c2)C1 | inactive
5) CCCN1CCO[C@@H]2c3cc(O)ccc3OC[C@H]21 | inactive

Tell me the measured outcome of COC(=O)[C@@H](N)CCCN=C(N)N[N+](=O)[O-] , please.
inactive

Tell me the measured outcome of C=CCN1CC[C@]23CCCCC2[C@H]1Cc1ccc(O)cc13 (some centres not stated) , please.
inactive
